- Tested on: PPARg:RXRa 270nM:90nM, anti-RXR (NR concentration 270 nM, RXRa partner concentration 90 nM)
- assay_comment: PBM binding z-score (relative to random genomic background probes); higher = stronger binding; sequences stand for … in GC…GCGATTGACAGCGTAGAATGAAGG
measured_parameter: PBM binding z-score

GATAGAGGGTCAGCTAGAGGCCAGAGTATGGAAA ... 2.57
TAGCCTAGGTCATCCGGGCCAGTATAGTGTCGGC ... 2.35
AGTGAAAGTTCATCTAGGTAACGTAAGATATGCT ... 5.5
CTAGAAAGGTCGTGCTCAGGTGAGTATACCAAAC ... 3.48
TCGAGTTGGTTAGTCGGGGCATTCAGCCAACATA ... 0.5
ATCTCTAGGTAACCAAGTTCAGTCAATGCCGAAC ... 0.815

### Prompt I am curious: what PBM binding z-score value has been reported for "TCTCGGAGGACACGAAGGGCAGAGCTTTCCAGAG" ?
### Response 0.753

### Prompt I am curious: what PBM binding z-score value has been reported for "CGAACTATGTCAGAACAGGACAGTGAAGGATGAT" ?
### Response 0.229

### Prompt I am curious: what PBM binding z-score value has been reported for "GTACCAAGGTGAATAGGTCGTGGATGAGTAGGCG" ?
### Response 2.35

====

Reported PBM binding z-score is given for each of the following sequences.
- Tested on: LXRb homodimer (NR concentration 270 nM)
- assay_comment: PBM binding z-score (relative to random genomic background probes); higher = stronger binding; sequences stand for … in GC…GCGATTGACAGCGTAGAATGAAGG
Please respond with just the number, no unit label.

Record excerpt, results attached:
CCTGCTAGGTCAATGTTCAGCTAAAGCAGCTCGC ... 0.516
TAGCCTAGGTCATTCAGGGGCCAGTCTAGAAAGC ... 0.819

### Prompt I am curious: what PBM binding z-score value has been reported for "CCGACTGAGGCAAAGGTTACCATACTCAGTACGA" ?
### Response -0.611

### Prompt I am curious: what PBM binding z-score value has been reported for "CCTCGGAGGACAGAAGGTCAGAGCCGTCCGCTTT" ?
### Response -0.824

### Prompt I am curious: what PBM binding z-score value has been reported for "ATCGAGAGGTCGAGGTGAGTATAGAGAAAGGGAA" ?
### Response -0.102

### Prompt I am curious: what PBM binding z-score value has been reported for "TAGTCTAGGTCATGGGCCAGTATACCACGCGAAC" ?
### Response 1.74

====

- System: THRa homodimer (NR concentration 90 nM)
- assay_comment: PBM binding z-score (relative to random genomic background probes); higher = stronger binding; sequences stand for … in GC…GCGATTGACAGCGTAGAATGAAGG
Grouping key: PBM binding z-score. Bins: bin 1 = under -0.2, bin 2 = from -0.2 up to 0.7, bin 3 = 0.7 and over

### Prompt Determine which band this sequence sits in: "CTCGAAAGGTCGTGCTCAGGTTAGTATACCAAAC"
### Response bin 3

### Prompt Determine which band this sequence sits in: "CCTTACGGGTCACTCCAGGCTATAGCATCGGAGT"
### Response bin 1

### Prompt Determine which band this sequence sits in: "CCTACTGGGCCAAAGGTCATTTATTCCAATGCTC"
### Response bin 3

### Prompt Determine which band this sequence sits in: "TCATATAGGTAAAGGTGAAAGGCGAACGATATGA"
### Response bin 1

### Prompt Determine which band this sequence sits in: "TGAATGAGGTTATAAGATCAGGCAACGTTGCAAA"
### Response bin 2

### Prompt Determine which band this sequence sits in: "GCGACTGGGGCATCAGTAGGTTACCATAACTTAA"
### Response bin 1

====

Reported PBM binding z-score is given for each of the following sequences.
- System: PPARg:RXRa DBDmut IVT, anti-RXR (DBD mutation: RXRa K156A/R161A, NR concentration 270 nM, RXRa partner concentration 90 nM)
- assay_comment: PBM binding z-score (relative to random genomic background probes); higher = stronger binding; sequences stand for … in GC…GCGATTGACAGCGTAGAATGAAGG
Please respond with just the number, no unit label.

CCGACCGGGGCAAAGGTTACCATACTCAGTACGA ... 0.771
ATCGAAGGGTCGACGAGGTGAGTATACACCGTTT ... -0.299
ACTAGCAGGCCAAGTTTCGGTCACTCAAACAAAG ... 0.73
GGAACGAGGGCATTCGAGTTGATAGCGTGGCGAT ... 3.44
TGTTGTAGATCAAGCAGGTTAAGAAAGCCTGAGT ... -0.275
CCTCGGAGGACAGAAGATCAGAGCTGTCCGCTTT ... -0.304
GCGACTGGGGCATCAGCAGGTTAGCATAACTTAA ... 3.62
TCTTGTAGATCAATAGAGGTTAAGTAAGTGCGCT ... 1.78

### Prompt I am curious: what PBM binding z-score value has been reported for "CATACTAGGTCAAGGTCAAAGTCGGTTTGTGCCA" ?
### Response 7.56

### Prompt I am curious: what PBM binding z-score value has been reported for "TCTCGGAGGACACGAAAGGTCAGAGATCGACATC" ?
### Response 1.64

### Prompt I am curious: what PBM binding z-score value has been reported for "CCGTACGGGTCACGAGGTTATAGCACGACGAGCG" ?
### Response 2.29

====

- System: PPARg DBDmut IVT, anti-PPARg (DBD mutation: PPARg1 K132A/R137A, NR concentration 270 nM)
- assay_comment: PBM binding z-score (relative to random genomic background probes); higher = stronger binding; sequences stand for … in GC…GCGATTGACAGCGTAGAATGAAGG
Reported PBM binding z-score is given for each of the following sequences.
Please respond with just the number, no unit label.

Record excerpt, results attached:
TCTTGTAGATGAAAGGTTAAGAAAGCCGAAGCCT ... 0.195
ATCGAAAGGGCGAGGTGAGTATAGAGAAAGGGAA ... 0.945
GCTAGCAGGCCATTTGGGACACTCAATGACGGGC ... -0.76

Now consider a different sequence.
### Prompt What PBM binding z-score appears in the records for this sequence with PPARg DBDmut IVT, anti-PPARg (DBD mutation: PPARg1 K132A/R137A, NR concentration 270 nM)? "ATCTCTAGGTAAAAGTTCAGTGTATCCCGAGGAT"
### Response 1.72

====

- Tested on: RARg homodimer (NR concentration 270 nM)
- assay_comment: PBM binding z-score (relative to random genomic background probes); higher = stronger binding; sequences stand for … in GC…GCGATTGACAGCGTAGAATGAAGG
measured_parameter: PBM binding z-score
Please respond with just the number, no unit label.

Record excerpt, results attached:
GCTAGTTGGTCAGTAAAAAGTCACACACCGGTCG ... 0.701
TCTAGTTGGTCACGGAGGTCACCCACGACGGGTA ... 5.06
TCATATAGGTAATGCAGGTGAAAGTCGGCATCTA ... 0.438

### Prompt I am curious: what PBM binding z-score value has been reported for "ATATGTAGGTTGTCGGGTCATTCAGTTTGCGCAT" ?
### Response 1.66

### Prompt I am curious: what PBM binding z-score value has been reported for "CCTTACCGGTCACTGACAGGTTATAGCATTTGGA" ?
### Response 3.15

### Prompt I am curious: what PBM binding z-score value has been reported for "GCAGACAGGTGAAACGCAAGTAACTCAGGGTGGC" ?
### Response 0.311

====

- Tested on: PPARa:RXRa (NR concentration 270 nM, RXRa partner concentration 90 nM)
- assay_comment: PBM binding z-score (relative to random genomic background probes); higher = stronger binding; sequences stand for … in GC…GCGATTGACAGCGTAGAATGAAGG
Reported PBM binding z-score is given for each of the following sequences.
Please respond with just the number, no unit label.

### Prompt I am curious: what PBM binding z-score value has been reported for "GCTCGGAGGACAAGGTCAGAGCATTGTCCGTAGA" ?
### Response 2.48

### Prompt I am curious: what PBM binding z-score value has been reported for "TCATATAGGTGAATGCTAGGTGAAAGTCCGATCT" ?
### Response 2.55

### Prompt I am curious: what PBM binding z-score value has been reported for "GGAACGAGGGCATTCGAGTTGGTAGCATGGCGAT" ?
### Response 1.06

### Prompt I am curious: what PBM binding z-score value has been reported for "CAAACTAGGTCTAGGTCAAAGTCGGTTTGTGCCA" ?
### Response 3.34

### Prompt I am curious: what PBM binding z-score value has been reported for "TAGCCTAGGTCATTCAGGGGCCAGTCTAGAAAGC" ?
### Response 3.29

### Prompt I am curious: what PBM binding z-score value has been reported for "ATACCAAGTTGATCGTGAGGTCGTTGATACTAAC" ?
### Response 1.22

### Prompt I am curious: what PBM binding z-score value has been reported for "TCATATAGATAAAAGGTGAAAGTCGGTGTGGTAA" ?
### Response 3.28

### Prompt I am curious: what PBM binding z-score value has been reported for "TCTATTAGTTGATTAGGGCAACCGCAACAGCGGA" ?
### Response 1.06

### Prompt I am curious: what PBM binding z-score value has been reported for "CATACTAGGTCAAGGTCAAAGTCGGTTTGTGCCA" ?
### Response 5.6

### Prompt I am curious: what PBM binding z-score value has been reported for "CCTACTGGACCATTCAGAGGTCATTGATCATATG" ?
### Response 3.7

### Prompt I am curious: what PBM binding z-score value has been reported for "GGAACGAGAGCATTCGAGTTGATAGCATGGCGAT" ?
### Response -0.713

### Prompt I am curious: what PBM binding z-score value has been reported for "GGATCGAGGGCAAGTTGATAGCAGAGTTTGATGG" ?
### Response 1.42
